These measurements were taken from patent US20210155689A1.

Parameter Mean fluorescence intensity: see the listing below.
Target: T1, monkey LAG-3 (full length, on the cell surface) (monkey, UniProt P18627 24-525 (human entry))
T1 construct: also called HEK293-cLAG-3; monkey LAG-3 protein on the cell surface
T1 chain: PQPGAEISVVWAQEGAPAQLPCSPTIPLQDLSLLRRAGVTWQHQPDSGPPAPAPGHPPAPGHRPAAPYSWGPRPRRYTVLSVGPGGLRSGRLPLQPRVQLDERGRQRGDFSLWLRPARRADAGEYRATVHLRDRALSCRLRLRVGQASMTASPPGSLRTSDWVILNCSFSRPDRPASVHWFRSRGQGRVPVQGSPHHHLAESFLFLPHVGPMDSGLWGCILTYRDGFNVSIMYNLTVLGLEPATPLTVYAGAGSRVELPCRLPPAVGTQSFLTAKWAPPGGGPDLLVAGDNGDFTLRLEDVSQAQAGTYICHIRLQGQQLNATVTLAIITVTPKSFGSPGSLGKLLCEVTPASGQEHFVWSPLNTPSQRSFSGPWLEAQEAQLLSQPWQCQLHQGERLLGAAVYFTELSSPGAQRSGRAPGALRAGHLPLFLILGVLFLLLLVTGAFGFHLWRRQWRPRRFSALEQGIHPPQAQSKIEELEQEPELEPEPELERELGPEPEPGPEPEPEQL
Assay: FACS, HEK293-cLAG-3; 200.000 nM
Write down the numeric answer in MFI and omit the unit.

binder="556F6B8 (mouse antibody purified from hybridoma) (antibody, V domains shown, also called mAb123-556F6B8) VH: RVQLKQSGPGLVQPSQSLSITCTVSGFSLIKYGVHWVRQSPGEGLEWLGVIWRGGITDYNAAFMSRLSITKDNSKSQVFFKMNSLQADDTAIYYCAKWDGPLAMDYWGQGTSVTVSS VL: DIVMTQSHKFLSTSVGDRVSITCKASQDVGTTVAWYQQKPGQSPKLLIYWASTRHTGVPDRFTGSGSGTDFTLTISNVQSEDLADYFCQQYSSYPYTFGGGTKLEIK" readout_unit=MFI obs_value=52.2
binder="105F1E10 (mouse antibody purified from hybridoma) (antibody, V domains shown, also called mAb009-105F1E10) VH: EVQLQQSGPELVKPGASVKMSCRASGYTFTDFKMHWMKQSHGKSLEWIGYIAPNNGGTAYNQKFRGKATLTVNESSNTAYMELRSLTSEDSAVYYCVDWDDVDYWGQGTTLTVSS VL: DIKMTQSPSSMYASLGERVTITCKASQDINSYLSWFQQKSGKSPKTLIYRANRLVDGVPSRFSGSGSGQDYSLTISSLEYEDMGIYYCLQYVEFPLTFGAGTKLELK" readout_unit=MFI obs_value=120
binder="405B8H3 (mouse antibody purified from hybridoma) (antibody, V domains shown, also called mAb103-405B8H3; 405B81-13) VH: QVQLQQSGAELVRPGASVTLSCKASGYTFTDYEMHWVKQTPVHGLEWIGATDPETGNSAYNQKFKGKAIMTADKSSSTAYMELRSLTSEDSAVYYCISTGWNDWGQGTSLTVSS VL: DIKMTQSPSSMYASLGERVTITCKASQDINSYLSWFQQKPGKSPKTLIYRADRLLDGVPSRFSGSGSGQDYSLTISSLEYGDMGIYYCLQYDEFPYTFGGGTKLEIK" readout_unit=MFI obs_value=139
binder="409B11E12 (mouse antibody purified from hybridoma) (antibody, V domains shown, also called mAb104-409B11E12) VH: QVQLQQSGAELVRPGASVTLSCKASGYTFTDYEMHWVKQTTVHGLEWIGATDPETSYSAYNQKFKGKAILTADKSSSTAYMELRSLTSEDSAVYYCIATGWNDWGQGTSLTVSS VL: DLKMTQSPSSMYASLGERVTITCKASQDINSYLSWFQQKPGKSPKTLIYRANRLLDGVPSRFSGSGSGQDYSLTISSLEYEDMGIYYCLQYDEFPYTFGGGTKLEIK" readout_unit=MFI obs_value=134

Turning now to a further record.
Value lookup for Mean fluorescence intensity; key = 409D4E10 (mouse antibody purified from hybridoma) (antibody, V domains shown, also called mAb112-409D4E10) VH: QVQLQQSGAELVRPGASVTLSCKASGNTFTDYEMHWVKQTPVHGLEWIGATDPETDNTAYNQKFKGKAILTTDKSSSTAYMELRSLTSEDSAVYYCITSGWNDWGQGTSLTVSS VL: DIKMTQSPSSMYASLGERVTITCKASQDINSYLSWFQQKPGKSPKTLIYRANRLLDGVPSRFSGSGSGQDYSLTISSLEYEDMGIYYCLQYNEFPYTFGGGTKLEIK
153
